- Study System: ATP-binding cassette transporter A1 (ABCA1) (UniProt P41233 1-2261, limits assumed)
- Sequence (P41233 whole entry): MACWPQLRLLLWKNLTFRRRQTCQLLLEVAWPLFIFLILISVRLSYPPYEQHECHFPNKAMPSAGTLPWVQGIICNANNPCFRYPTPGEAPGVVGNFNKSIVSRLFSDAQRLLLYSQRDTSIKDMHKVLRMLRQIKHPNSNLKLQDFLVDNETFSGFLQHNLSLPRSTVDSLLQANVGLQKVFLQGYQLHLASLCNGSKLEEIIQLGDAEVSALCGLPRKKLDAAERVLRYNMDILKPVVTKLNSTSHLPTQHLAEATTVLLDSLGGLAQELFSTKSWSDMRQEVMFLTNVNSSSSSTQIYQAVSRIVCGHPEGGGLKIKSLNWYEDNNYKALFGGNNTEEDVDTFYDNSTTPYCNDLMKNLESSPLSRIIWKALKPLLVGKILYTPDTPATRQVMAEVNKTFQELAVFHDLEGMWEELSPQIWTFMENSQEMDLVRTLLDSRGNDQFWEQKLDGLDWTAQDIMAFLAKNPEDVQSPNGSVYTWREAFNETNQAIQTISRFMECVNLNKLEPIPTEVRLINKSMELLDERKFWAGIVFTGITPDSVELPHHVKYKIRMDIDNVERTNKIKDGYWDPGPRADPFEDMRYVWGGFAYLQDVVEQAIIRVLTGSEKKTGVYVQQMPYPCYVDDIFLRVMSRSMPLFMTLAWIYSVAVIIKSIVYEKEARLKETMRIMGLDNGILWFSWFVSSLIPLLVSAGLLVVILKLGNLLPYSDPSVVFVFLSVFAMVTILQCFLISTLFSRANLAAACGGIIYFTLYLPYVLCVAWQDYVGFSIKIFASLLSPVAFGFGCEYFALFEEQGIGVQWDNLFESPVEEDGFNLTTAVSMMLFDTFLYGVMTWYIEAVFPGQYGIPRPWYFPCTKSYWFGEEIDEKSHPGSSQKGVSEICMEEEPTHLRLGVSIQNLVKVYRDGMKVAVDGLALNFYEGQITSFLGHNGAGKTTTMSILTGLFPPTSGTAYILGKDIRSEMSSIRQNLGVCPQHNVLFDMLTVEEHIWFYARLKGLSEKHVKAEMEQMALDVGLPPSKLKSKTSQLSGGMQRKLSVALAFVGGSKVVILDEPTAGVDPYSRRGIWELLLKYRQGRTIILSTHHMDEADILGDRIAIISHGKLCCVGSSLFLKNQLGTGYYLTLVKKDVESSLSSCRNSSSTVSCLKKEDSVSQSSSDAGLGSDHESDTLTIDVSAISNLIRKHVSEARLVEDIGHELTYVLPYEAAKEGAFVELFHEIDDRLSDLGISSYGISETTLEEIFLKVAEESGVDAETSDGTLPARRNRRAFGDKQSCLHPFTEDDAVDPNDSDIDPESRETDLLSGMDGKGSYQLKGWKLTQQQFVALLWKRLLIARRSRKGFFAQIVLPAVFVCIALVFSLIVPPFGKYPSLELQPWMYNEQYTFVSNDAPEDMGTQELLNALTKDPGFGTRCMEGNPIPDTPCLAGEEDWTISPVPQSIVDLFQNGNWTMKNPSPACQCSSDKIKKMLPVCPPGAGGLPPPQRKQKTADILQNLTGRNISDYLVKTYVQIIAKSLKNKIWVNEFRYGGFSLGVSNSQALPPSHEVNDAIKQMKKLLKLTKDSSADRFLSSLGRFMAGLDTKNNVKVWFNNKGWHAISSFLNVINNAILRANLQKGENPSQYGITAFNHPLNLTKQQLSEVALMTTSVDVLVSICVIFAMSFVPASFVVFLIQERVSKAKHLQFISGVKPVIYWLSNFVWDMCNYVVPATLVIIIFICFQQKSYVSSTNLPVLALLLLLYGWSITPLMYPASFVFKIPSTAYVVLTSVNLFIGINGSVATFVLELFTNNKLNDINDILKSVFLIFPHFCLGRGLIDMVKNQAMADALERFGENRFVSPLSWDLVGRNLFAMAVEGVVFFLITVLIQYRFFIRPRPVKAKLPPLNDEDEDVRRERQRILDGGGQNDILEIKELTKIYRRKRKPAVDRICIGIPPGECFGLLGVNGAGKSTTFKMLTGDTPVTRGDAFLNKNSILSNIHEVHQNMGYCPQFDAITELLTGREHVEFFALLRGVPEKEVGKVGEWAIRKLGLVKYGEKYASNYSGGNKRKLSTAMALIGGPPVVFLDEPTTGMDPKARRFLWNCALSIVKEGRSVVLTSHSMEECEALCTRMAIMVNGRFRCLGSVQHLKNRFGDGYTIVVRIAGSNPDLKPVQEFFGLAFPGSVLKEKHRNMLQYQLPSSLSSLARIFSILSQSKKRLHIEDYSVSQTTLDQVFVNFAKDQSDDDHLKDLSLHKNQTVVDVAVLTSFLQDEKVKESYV
- Experiment Summary: cell-based or functional assay
Reported Endpoint: % cholesterol efflux/4 hours at 0.3 µg/ml (%)
All answers are understood in %, so give the number only.

# annotated cases, reported % cholesterol efflux/4 hours at 0.3 µg/ml shown
- DLRDKLDAWLDLLRDLLDRL [N1154-9]: 0.43
- DLRDRLDAWLDLLRDLLDRL [N1154-11]: 1.34
- ELRERLEAWLELLRELLERL [N1154-7]: 0.83
- ELRDRLEAWLDLLRELLERL [N1154-10]: 1
- ELREKLEAWLELLRELLERL [N1154-6]: 0.46

// switching to the query binder
Input: Give me measured % cholesterol efflux/4 hours at 0.3 µg/ml, please, for this binder: ELRDKLEAWLDLLRELLERL [N1154-8]
Output: 0.48
